studyTarget: Human Liver Cathepsin L (Homo sapiens, UniProt P07711)
Sequence (P07711 114-288 limits assumed): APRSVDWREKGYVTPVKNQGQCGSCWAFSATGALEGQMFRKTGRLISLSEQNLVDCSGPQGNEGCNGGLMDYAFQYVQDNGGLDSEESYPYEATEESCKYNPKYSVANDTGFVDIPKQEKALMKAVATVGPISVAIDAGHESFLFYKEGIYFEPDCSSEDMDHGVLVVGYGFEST
Sequence (P07711 292-333 limits assumed): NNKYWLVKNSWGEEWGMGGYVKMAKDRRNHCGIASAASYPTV
Starred links: 1 amine or outer side, 2 acyl side, 3 side chain; linkers in the order of their positions; H or OH if unused. Non-standard residues stand in square brackets, D forms with d. Residues, ends and D or L forms follow the SMILES beside them. *: point of attachment. Isobutyloxycarbonyl = CC(C)COC(=O)*; X2 = CCCC(N[*:1])C(=O)C(=O)[*:2]; Chg = N[CH](C(=O)O)C1CCCCC1; Phg = N[CH](C(=O)O)c1ccccc1
Threshold-based label: Ki under 40 nM gives fulfilled, Ki not under 40 nM gives not fulfilled.

Some solved entries appear below for comparison.
CCCC(NC(=O)C(CC(C)C)NC(=O)C(NC(=O)OCC(C)C)C1CCCCC1)C(=O)C(=O)NCC(=O)NC(C(N)=O)c1ccccc1 (centres unmarked) (Isobutyloxycarbonyl-[Chg]L[X2]G[Phg]-NH2; configuration not given here) | fulfilled
CC(C)C[C@@H](C(=O)NC(CC1CC1)C(=O)C(N)=O)C1CCCCCC[C@H](NC(=O)OC(C)(C)C)C1=O (some centres unmarked) | fulfilled
C=CCNC(=O)C(=O)[C@H](CCCC)NC(=O)[C@@H]1[C@@H]2[C@H](CN1C(=O)[C@@H](NC(=O)NC1([C@H]3CCCS3(=O)=O)CCCCC1)C(C)(C)C)C2(C)C [drawing 681] | not fulfilled

Query: Strictly below 40 nM in Ki? "CN(C[C@@H](NC(=O)N[C@H](C(=O)N1C[C@H]2[C@@H]([C@H]1C(=O)N[C@@H](CC(F)F)C(=O)N[C@@H]1C[C@@H]1c1ccccc1)C2(C)C)C(C)(C)C)C(C)(C)C)S(C)(=O)=O"
Reply: not fulfilled

Query: Strictly below 40 nM in Ki? CC(C)(C)NC(=O)N[C@H](C(=O)N1C[C@H]2[C@@H]([C@H]1C(=O)NC(CC1CCC1)C(=O)C(N)=O)C2(C)C)C(C)(C)C (some centres unmarked)
Reply: not fulfilled

Query: Strictly below 40 nM in Ki? C=CCNC(=O)C(=O)[C@H](CCC1CC1)NC(=O)[C@@H]1[C@@H]2[C@H](CN1C(=O)[C@@H](NC(=O)NC1(CS(=O)(=O)C(C)(C)C)CCCCC1)C(C)(C)C)C2(C)C [drawing 670]
Reply: not fulfilled

Query: Strictly below 40 nM in Ki? "C=CCNC(=O)C(=O)[C@@H]1CCCCCCCCC[C@H](NC(=O)N[C@H](CN2CCC(C)(C)CC2=O)C(C)(C)C)C(=O)N2C[C@H]3[C@@H]([C@H]2C(=O)N1)C3(C)C"
Reply: not fulfilled
